Molecular target: human PI 3-kinase p120γ (Homo sapiens, UniProt P48736)
Construct: purchased Millipore Corporation
Sequence (P48736 whole entry): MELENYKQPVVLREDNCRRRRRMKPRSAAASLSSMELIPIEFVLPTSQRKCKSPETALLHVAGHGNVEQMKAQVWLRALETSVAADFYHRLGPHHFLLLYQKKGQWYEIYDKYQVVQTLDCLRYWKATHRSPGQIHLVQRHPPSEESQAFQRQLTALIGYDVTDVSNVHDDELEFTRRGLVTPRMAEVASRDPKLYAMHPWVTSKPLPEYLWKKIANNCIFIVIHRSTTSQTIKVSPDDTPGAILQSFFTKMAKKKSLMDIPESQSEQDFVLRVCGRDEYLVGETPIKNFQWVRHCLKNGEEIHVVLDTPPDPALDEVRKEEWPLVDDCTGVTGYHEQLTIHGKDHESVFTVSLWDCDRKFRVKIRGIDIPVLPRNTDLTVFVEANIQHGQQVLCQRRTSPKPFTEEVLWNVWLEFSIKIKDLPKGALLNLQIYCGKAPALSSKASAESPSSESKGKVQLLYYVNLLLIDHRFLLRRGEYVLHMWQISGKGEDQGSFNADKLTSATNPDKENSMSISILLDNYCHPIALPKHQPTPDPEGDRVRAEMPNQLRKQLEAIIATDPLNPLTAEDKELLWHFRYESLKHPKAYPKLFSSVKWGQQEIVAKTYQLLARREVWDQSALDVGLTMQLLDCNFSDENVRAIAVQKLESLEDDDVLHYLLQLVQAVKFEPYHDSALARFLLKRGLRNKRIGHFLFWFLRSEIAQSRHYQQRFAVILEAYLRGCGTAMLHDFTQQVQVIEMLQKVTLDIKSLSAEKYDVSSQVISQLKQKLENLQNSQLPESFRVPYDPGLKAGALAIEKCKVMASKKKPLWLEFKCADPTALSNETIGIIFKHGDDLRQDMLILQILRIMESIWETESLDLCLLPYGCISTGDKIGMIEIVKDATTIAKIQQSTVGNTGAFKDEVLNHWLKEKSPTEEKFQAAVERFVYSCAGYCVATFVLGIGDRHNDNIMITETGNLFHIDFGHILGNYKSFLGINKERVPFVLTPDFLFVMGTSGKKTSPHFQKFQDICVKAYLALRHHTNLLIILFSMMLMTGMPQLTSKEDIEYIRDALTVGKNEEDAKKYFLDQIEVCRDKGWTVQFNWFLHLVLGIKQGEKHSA
Test: PI 3-kinase p120γ enzyme activity inhibition test
Type: biochemical
Details: ATP 10.0 μM, PIP2-PS 5.0 μM, 30° C., 2 hours; read-out: PI3Kγ (IC50 value class)
pIC50: −log10 of the molar value.

{"columns": ["COMPOUND", "pIC50"],
 "data": [
  ["COc1ncccc1-c1noc(-c2sc(NC(C)=O)nc2C)n1 [Example 16]", "> 7.00"],
  ["Cc1nc(N)sc1-c1nc(C(C)(C)C)no1 [Example 114]", "> 7.00"],
  ["CC(=O)Nc1nc(C)c(-c2nc(CCCO)no2)s1 [Example 33]", "6.30 to 7.00"],
  ["COCCNC(=O)Nc1nc(C)c(-c2nc(-c3cccnc3)no2)s1 [Example 122]", "> 7.00"],
  ["CC(=O)Nc1nc(C)c(-c2nc(CC(C)(C)CN)no2)s1 [Example 43]", "5.00 to 6.30"],
  ["CC(=O)Nc1nc(C)c(-c2nc(N3CCCC(O)C3)no2)s1 (centres unmarked) [Example 93]", "> 7.00"],
  ["CCOC(=O)CC(C)NC(=O)Nc1nc(C)c(-c2nc(-c3cccnc3)no2)s1 (centres unmarked) [Example 143]", "> 7.00"],
  ["CCOC(=O)CCCC(=O)Nc1nc(C)c(-c2nc(-c3cccnc3)no2)s1 [Example 118]", "> 7.00"],
  ["CC(=O)Nc1nc(C)c(-c2nc(C3CCCCC3)no2)s1 [Example 9]", "> 7.00"],
  ["C=Cc1noc(-c2sc(NC(C)=O)nc2C)n1 [Example 35]", "6.30 to 7.00"],
  ["Cc1nc(NC(=O)NCCCNC(C)(C)C)sc1-c1nc(-c2cccnc2)no1 [Example 148]", "> 7.00"],
  ["Cc1nc(NC(=O)NCCC(=O)OC(C)(C)C)sc1-c1nc(CC(F)(F)F)no1 [Example 147]", "> 7.00"],
  ["CC(=O)Nc1nc(C)c(-c2nc(C(C)NC(C)=O)no2)s1 (centres unmarked) [Example 77]", "5.00 to 6.30"],
  ["Cc1nc(NC(=O)NCCNC(=O)C(C)(C)C)sc1-c1nc(-c2cccnc2)no1 [Example 139]", "> 7.00"],
  ["CC(=O)Nc1nc(C)c(-c2nc(CC(C)(C)CNS(C)(=O)=O)no2)s1 [Example 44]", "> 7.00"],
  ["COC(=O)CCc1noc(-c2sc(NC(C)=O)nc2C)n1 [Example 71]", "6.30 to 7.00"],
  ["CC(=O)Nc1nc(C)c(-c2nc(-c3ccc(OCc4cccnc4)nc3)no2)s1 [Example 5]", "5.00 to 6.30"],
  ["Cc1nc(NC(=O)NCCCN2CCCC2=O)sc1-c1nc(CC(C)(C)CO)no1 [Example 159]", "> 7.00"],
  ["Cc1nc(NC(=O)NCCOC(=O)C(C)(C)C)sc1-c1nc(-c2cccnc2)no1 [Example 135]", "> 7.00"],
  ["CC(=O)Nc1nc(C)c(-c2nc(-c3ccccn3)no2)s1 [Example 10]", "6.30 to 7.00"]
]}
